test system: HSkMC; assay: cytotoxicity call (relative viability < 0.9); conditions: 10 µM
Out of some 39,000 compounds screened, about 1,500 (3.8%) were called active. The full list was thinned out, with actives kept by preference.

- compound: "C[C@H](CO)N1C[C@H](C)[C@@H](CN(C)C(=O)CN(C)C)Oc2cc(-c3cncnc3)ccc2S1(=O)=O"
  system: "HSkMC"
  cytotoxicity call: "inactive"
- compound: "CCC(C)(C)c1ccc(CC(C)CN2CC(C)OC(C)C2)cc1.Cl (stereo not given)"
  system: "HSkMC"
  cytotoxicity call: "inactive"
- compound: "CCS(=O)(=O)N1C[C@]2(C1)CN([C@@H](CO)c1c2c2ccc(cc2n1C)OC)C(=O)Nc1cccc(c1)F"
  system: "HSkMC"
  cytotoxicity call: "inactive"
- compound: "CC(C)[Si](C#C[Si](C(C)C)(C(C)C)C(C)C)(O[C@H](C)c1cn([C@H](C)c2ccccc2)nn1)C(C)C"
  system: "HSkMC"
  cytotoxicity call: "inactive"
- compound: "C[C@@H]1CN([C@@H](C)CO)C(=O)Cc2cc(NC(=O)Nc3ccc(C(F)(F)F)cc3)ccc2O[C@@H]1CN(C)Cc1ccc(C(F)(F)F)cc1"
  system: "HSkMC"
  cytotoxicity call: "active"
- compound: "C[C@H](CO)N1C[C@H](C)[C@H](CN(C)C(=O)Nc2ccc(F)cc2)Oc2ccc(NC(=O)Nc3cccc4ccccc34)cc2C1=O"
  system: "HSkMC"
  cytotoxicity call: "inactive"
- compound: "C[C@@H]1CN([C@H](C)CO)C(=O)Cc2cc(NS(=O)(=O)c3ccc(Cl)cc3)ccc2O[C@H]1CN(C)Cc1ccc(Oc2ccccc2)cc1"
  system: "HSkMC"
  cytotoxicity call: "active"
- compound: "O=C(C[C@H]1CC[C@@H]2[C@H](COC[C@H](O)CN2S(=O)(=O)c2ccc(Cl)cc2)O1)NCCN1CCCCC1"
  system: "HSkMC"
  cytotoxicity call: "inactive"
- compound: "CN(C)CCCNC(=O)C[C@@H]1C=C[C@@H](NC(=O)Cc2cccnc2)[C@@H](CO)O1"
  system: "HSkMC"
  cytotoxicity call: "inactive"
- compound: "Cc1ccc(S(=O)(=O)N(C)C[C@H]2Oc3c(NC(=O)Nc4ccc(C(F)(F)F)cc4)cccc3C(=O)N([C@H](C)CO)C[C@@H]2C)cc1"
  system: "HSkMC"
  cytotoxicity call: "inactive"
- compound: "C[C@H](CO)N1C[C@H](C)[C@@H](CN(C)Cc2ccncc2)Oc2ccc(NC(=O)Nc3ccc(C(F)(F)F)cc3)cc2CC1=O"
  system: "HSkMC"
  cytotoxicity call: "active"
- compound: "C[C@H](CO)N1C[C@H](C)[C@@H](CN(C)Cc2ccc(Oc3ccccc3)cc2)Oc2ccc(NS(=O)(=O)c3ccc(Cl)cc3)cc2CC1=O"
  system: "HSkMC"
  cytotoxicity call: "inactive"
- compound: "C[C@@H]1CN([C@@H](C)CO)C(=O)c2cc(NC(=O)NC3CCCCC3)ccc2O[C@@H](C)CCCCO[C@H]1CN(C)C(=O)CCC(F)(F)F"
  system: "HSkMC"
  cytotoxicity call: "inactive"
- compound: "C[C@H]1CN([C@@H](C)CO)S(=O)(=O)c2ccc(-c3ccncc3)cc2O[C@@H]1CN(C)C(=O)c1cccc(F)c1"
  system: "HSkMC"
  cytotoxicity call: "inactive"
- compound: "C[C@H]1CN([C@@H](C)CO)C(=O)c2cccc(NC(=O)c3ccncc3)c2O[C@H]1CN(C)Cc1ccc(Oc2ccccc2)cc1"
  system: "HSkMC"
  cytotoxicity call: "inactive"

---

test system: HSkMC; test: cytotoxicity call (relative viability < 0.9); settings: 10 µM
Screen size: about 39,000 compounds; about 1,500 (3.8%) were called active. The list comes from a sample in which actives are over-represented; it also holds close analogues and randomly drawn compounds.
Labels: yes (1) for active, no (0) for inactive

- compound: "C[C@H](CO)N1C[C@H](C)[C@H](CN(C)C(=O)c2ccc3c(c2)OCO3)Oc2cc(-c3cncnc3)ccc2S1(=O)=O"
  labelClass: "no (0)"
- compound: "CO[C@H]1C[C@@H](O[C@@H]2/C(C)=C/C[C@@H]3C[C@@H](C[C@]4(CC[C@H](C)[C@@H](C5CCCCC5)O4)O3)OC(=O)[C@@H]3C=C(C)/C(=N/O)[C@H]4OC/C(=C\\C=C\\[C@@H]2C)[C@]43O)O[C@@H](C)[C@@H]1O"
  labelClass: "no (0)"
- compound: "C[C@@H]1CCCCO[C@H](CN(C)CC2CCCCC2)[C@H](C)CN([C@H](C)CO)C(=O)c2cc(NC(=O)c3ccccc3)ccc2O1"
  labelClass: "no (0)"
- compound: "COCC#Cc1ccc2c(c1)O[C@H](CN(C)S(=O)(=O)c1cccc(F)c1)[C@H](C)CN([C@H](C)CO)S2(=O)=O"
  labelClass: "no (0)"
- compound: "COc1ccc2c3c([nH]c2c1)[C@H](CO)N(C[C@]13CCN(CC1)CC1CCCC1)C(=O)CN1CCOCC1"
  labelClass: "no (0)"
- compound: "Oc1ccc(O)cc1"
  labelClass: "no (0)"
- compound: "O=C(O)[C@H]1CCCNC1"
  labelClass: "no (0)"
- compound: "CCCCCCCCCCCCCCCCOCCCOP(=O)(O)CO[C@H](CO)Cn1ccc(N)nc1=O"
  labelClass: "no (0)"
- compound: "C[C@@H]1CN([C@H](C)CO)C(=O)c2cc(NS(=O)(=O)c3cn(C)cn3)ccc2O[C@H]1CN(C)Cc1ccc2c(c1)OCO2"
  labelClass: "no (0)"
- compound: "O=C1C=CC(=O)N1c1ccc(O)cc1"
  labelClass: "yes (1)"
- compound: "Cc1cc(C(=O)Nc2cccc3c2O[C@H](CN(C)S(=O)(=O)c2cccs2)[C@H](C)CN([C@H](C)CO)C3=O)n(C)n1"
  labelClass: "no (0)"
- compound: "CCCCC1C(=O)N(c2ccccc2)N(c2ccc(O)cc2)C1=O (configuration not stated)"
  labelClass: "no (0)"
- compound: "O=C(C[C@H]1CC[C@@H]2[C@H](COC[C@H](O)CN2Cc2ccccc2F)O1)N[C@H]1CCN(Cc2ccccc2)C1"
  labelClass: "no (0)"
- compound: "COC1CC(OC2C(C)=CCC3CC(CC4(CCC(C)C(C5CCCCC5)O4)O3)OC(=O)C3C=C(C)C(=NO)C4OCC(=CC=CC2C)C34O)OC(C)C1O (configuration not stated)"
  labelClass: "yes (1)"
- compound: "C[C@@H]1CN([C@H](C)CO)C(=O)c2cc(C#C[C@@H](C)O)cnc2O[C@@H]1CN(C)C(=O)Nc1ccc(C(F)(F)F)cc1"
  labelClass: "no (0)"
- compound: "Cc1cc(-c2cccs2)cc(C)n1"
  labelClass: "no (0)"
- compound: "COc1ccc(CN(C)C[C@@H]2Oc3c(NC(=O)c4cc(C)nn4C)cccc3C(=O)N([C@H](C)CO)C[C@H]2C)cc1"
  labelClass: "no (0)"

---

system: HSkMC; test: cytotoxicity call (relative viability < 0.9); details: 10 µM
In all, about 39,000 compounds went through this assay and about 1,500 (3.8%) were called active. The list comes from a sample in which actives are over-represented; it also holds close analogues and randomly drawn compounds.
Labels: active, inactive

- cpdSmiles: "CC(C)C[C@H](NC(=O)CNC(=O)c1cc(Cl)ccc1Cl)B1OC(=O)C[C@](CC(=O)O)(C(=O)O)O1"
  labelClass: "active"
- cpdSmiles: "Cc1ccc(NC(=O)c2ccc(CN3CCN(C)CC3)cc2)cc1Nc1nccc(-c2cccnc2)n1"
  labelClass: "inactive"
- cpdSmiles: "Cc1ccc(NC(=O)c2ccc(CN3CC[C@H](N(C)C)C3)c(C(F)(F)F)c2)cc1Nc1nccc(-c2cncnc2)n1"
  labelClass: "active"
- cpdSmiles: "C[C@H]1CN([C@@H](C)CO)S(=O)(=O)c2ccc(-c3cccnc3)cc2O[C@@H]1CN(C)CC1CCOCC1"
  labelClass: "inactive"
- cpdSmiles: "O=C(O[C@@H]1O[C@@H]2COC(=O)c3cc(O)c(O)c(O)c3-c3c(cc(O)c(O)c3O)C(=O)O[C@H]2[C@H](OC(=O)c2cc(O)c(O)c(O)c2)[C@H]1OC(=O)c1cc(O)c(O)c(O)c1)c1cc(O)c(O)c(O)c1"
  labelClass: "active"
- cpdSmiles: "C[C@@H]1CCCCO[C@@H](CN(C)C(=O)Cc2ccccc2)[C@H](C)CN([C@@H](C)CO)C(=O)c2cc(NC(=O)CCC(F)(F)F)ccc2O1"
  labelClass: "inactive"
- cpdSmiles: "CC/N=c1\\sc(C(=O)OC)cc(=O)n1CC"
  labelClass: "inactive"

---

system: HSkMC (human skeletal muscle cells); assay: cytotoxicity call (relative viability < 0.9); settings: 10 µM
The whole screen tested about 39,000 compounds, of which about 1,500 (3.8%) were called active. What follows is part of a selection rich in actives, with near analogues and random picks from the rest.
Labels: active, inactive

- cpdSmiles: "C[C@H](CO)N1C[C@H](C)[C@H](CN(C)Cc2ccc(Oc3ccccc3)cc2)Oc2ccc(NC(=O)Nc3ccc(F)cc3)cc2C1=O"
  labelClass: "active"
- cpdSmiles: "C[C@H]1CN([C@@H](C)CO)C(=O)c2cc(NC(=O)Nc3ccccc3)ccc2O[C@@H]1CN(C)Cc1ccc(Oc2ccccc2)cc1"
  labelClass: "inactive"
- cpdSmiles: "Cc1ccc(S(=O)(=O)Nc2ccc3c(c2)CC(=O)N([C@H](C)CO)C[C@@H](C)[C@@H](CN(C)S(=O)(=O)c2ccc(F)cc2)O3)cc1"
  labelClass: "inactive"
- cpdSmiles: "NC(=O)NCC#Cc1ccc2c(c1)[C@]1(C(=O)N2)[C@H](c2ccc(OCCO)cc2)N2[C@H](c3ccccc3)[C@H](c3ccccc3)OC(=O)[C@H]2[C@@H]1C(N)=O"
  labelClass: "inactive"
- cpdSmiles: "C[C@H]1CN([C@@H](C)CO)C(=O)c2cc(NC(=O)Nc3ccc(F)cc3)ccc2O[C@H]1CN(C)Cc1ccc(Oc2ccccc2)cc1"
  labelClass: "inactive"
- cpdSmiles: "C[C@@H]1CN([C@@H](C)CO)C(=O)c2cc(NC(=O)Nc3ccc(F)cc3)ccc2O[C@H]1CN(C)Cc1ccc(Oc2ccccc2)cc1"
  labelClass: "inactive"
- cpdSmiles: "CN1C(=O)c2cc(NC(=O)C3CCOCC3)ccc2OC[C@@H]2O[C@H](CC(=O)NCc3ccccc3F)CC[C@H]21"
  labelClass: "inactive"
